Each recorded value in this set is attributed to patent US7528138B2.

Read-out record for c-Met (Homo sapiens): Ki

Recorded Ki, per entry:
Item CCN(C)CCCc1cnc2c(-c3ccccn3)c(N)nn2c1 ; assay system c-Met (Homo sapiens); Ki reported as 500 to 5000 nM

The reported Ki value, c-Met (Homo sapiens), for Cc1cnc2c(-c3cc(N[C@@H](C)C(C)C)ncn3)c(N)nn2c1 reads < 500 nM

Others:
Known value: c-Met (Homo sapiens) Ki of the compound Nc1nn2cc(-c3ccc(N4CCN(CCO)CC4)nc3)cnc2c1-c1ccccn1 equals < 500 nM

Result for CCOC(=O)c1c(N)nn2cc(CCCOC(C)=O)cnc12 , tested on c-Met (Homo sapiens), Ki: 500 to 5000 nM

Record CCOC(=O)C1CCN(c2cc(-c3cnc4c(-c5ccccn5)c(N)nn4c3)ccn2)CC1 / c-Met (Homo sapiens), Ki recorded as 500 to 5000 nM

Field Ki (c-Met (Homo sapiens)), entry Nc1nn2cc(-c3cccc(CN4CCOCC4)c3)cnc2c1-c1ccccn1 : < 500 nM

###

- assay.target: c-Met (Homo sapiens, UniProt P08581)
- Sequence (P08581 25-1390): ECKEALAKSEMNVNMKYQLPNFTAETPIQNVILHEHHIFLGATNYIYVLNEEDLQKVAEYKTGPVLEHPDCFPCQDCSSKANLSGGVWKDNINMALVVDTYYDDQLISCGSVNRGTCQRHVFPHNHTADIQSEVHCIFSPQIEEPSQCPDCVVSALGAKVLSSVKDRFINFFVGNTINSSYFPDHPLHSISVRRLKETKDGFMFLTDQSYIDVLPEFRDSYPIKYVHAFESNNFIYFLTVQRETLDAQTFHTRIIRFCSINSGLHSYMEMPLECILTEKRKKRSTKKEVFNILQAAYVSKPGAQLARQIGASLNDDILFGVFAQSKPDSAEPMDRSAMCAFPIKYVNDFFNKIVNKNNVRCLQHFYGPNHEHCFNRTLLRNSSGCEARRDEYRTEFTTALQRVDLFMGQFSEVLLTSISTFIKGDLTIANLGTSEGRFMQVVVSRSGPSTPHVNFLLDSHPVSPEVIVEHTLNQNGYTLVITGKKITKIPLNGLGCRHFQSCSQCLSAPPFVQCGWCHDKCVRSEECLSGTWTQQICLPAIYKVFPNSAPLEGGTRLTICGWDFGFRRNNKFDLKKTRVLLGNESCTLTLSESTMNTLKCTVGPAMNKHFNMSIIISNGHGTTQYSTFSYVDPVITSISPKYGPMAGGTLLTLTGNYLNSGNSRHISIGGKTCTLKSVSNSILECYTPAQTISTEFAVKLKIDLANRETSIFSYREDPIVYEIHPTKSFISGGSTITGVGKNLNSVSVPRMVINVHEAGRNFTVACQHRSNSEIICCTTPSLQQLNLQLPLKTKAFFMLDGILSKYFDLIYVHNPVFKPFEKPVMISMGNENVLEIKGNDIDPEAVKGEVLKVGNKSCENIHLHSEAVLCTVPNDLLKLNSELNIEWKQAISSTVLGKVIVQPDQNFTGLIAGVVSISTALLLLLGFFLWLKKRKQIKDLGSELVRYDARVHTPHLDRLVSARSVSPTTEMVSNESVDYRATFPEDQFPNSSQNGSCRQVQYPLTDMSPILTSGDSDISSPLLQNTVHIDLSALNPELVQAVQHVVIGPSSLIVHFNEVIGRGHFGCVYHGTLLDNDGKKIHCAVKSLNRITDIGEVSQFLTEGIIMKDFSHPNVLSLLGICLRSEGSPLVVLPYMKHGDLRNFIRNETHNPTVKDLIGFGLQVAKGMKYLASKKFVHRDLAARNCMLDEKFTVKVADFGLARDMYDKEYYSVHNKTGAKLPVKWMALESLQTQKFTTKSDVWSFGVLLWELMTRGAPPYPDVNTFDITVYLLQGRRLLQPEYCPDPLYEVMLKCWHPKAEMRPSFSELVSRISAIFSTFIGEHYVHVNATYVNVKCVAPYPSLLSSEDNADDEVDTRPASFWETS
pKi: −log10 of the molar value.
property: pKi

Kindly note: c-Met (Homo sapiens, UniProt P08581), Nc1nn2cc(-c3ccncc3)cnc2c1-c1cccc(NCCC2=CCCCC2)n1 , pKi value reported: 5.30 to 6.30

pKi for c-Met (Homo sapiens, UniProt P08581) with input CCN(CCN)C(=O)c1ccc(-c2cnc3c(-c4ccccn4)c(N)nn3c2)nc1 equals > 6.30

Here Cc1cnc2c(-c3cc(N[C@H]4CCC[C@@H]4OCc4ccccc4)ncn3)c(N)nn2c1 was tested on c-Met (Homo sapiens, UniProt P08581), and its pKi came to > 6.30

Continue with the next compound.
Record Nc1nn2cc(-c3ccncc3)cnc2c1-c1cc(N2CCCCC2)ncn1 ; system c-Met (Homo sapiens, UniProt P08581); pKi = > 6.30

###

- assay.target: UniProtKB P52333
- Sequence (P52333 1-1124): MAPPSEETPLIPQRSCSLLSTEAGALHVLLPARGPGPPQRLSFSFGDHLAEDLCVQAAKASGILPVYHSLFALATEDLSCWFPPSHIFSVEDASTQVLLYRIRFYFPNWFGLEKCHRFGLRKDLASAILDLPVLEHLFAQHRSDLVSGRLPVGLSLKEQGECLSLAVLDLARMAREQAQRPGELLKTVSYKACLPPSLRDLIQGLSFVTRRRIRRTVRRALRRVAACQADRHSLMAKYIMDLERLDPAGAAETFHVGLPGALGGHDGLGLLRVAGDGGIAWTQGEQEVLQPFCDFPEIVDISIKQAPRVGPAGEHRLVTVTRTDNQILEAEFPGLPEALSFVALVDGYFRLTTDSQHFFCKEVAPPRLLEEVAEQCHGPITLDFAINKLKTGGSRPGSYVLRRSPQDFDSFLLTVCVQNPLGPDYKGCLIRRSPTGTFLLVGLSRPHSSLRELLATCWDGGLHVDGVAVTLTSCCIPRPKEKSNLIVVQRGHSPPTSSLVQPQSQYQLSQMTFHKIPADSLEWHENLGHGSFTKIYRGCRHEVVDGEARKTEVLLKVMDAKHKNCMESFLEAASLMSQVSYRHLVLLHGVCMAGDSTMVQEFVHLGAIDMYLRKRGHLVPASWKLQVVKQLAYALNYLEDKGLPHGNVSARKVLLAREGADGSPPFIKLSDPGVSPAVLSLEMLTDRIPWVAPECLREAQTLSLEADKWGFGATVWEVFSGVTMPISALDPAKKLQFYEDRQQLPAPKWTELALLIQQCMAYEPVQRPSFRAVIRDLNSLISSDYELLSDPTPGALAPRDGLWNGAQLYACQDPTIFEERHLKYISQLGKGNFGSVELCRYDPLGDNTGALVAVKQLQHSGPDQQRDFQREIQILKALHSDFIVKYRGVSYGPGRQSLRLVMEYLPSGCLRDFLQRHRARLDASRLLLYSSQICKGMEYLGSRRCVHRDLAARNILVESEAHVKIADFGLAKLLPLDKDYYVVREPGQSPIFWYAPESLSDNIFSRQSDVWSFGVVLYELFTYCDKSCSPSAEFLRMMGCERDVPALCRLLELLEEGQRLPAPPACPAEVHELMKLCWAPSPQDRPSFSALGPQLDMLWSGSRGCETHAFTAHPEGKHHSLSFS
property: Ki

Worked cases, answers included:
According to the records, this molecule Cc1cnc2c(-c3cc(N4CCC(c5ccccc5)C4)ncn3)c(N)nn2c1 (stereo not drawn) displays Ki of 0.5 to 5 µM

Recorded result, CNCCCN(C)C(=O)c1cccc(-c2cnc3c(-c4ccccn4)c(N)nn3c2)c1 , Ki: 0.5 to 5 µM

Lab note: Nc1nn2cc(-c3ccc(CO)cc3)cnc2c1-c1ccccn1 gave Ki of 0.5 to 5 µM

For reference, reported Ki for Nc1nn2cc(CCCN3CCOCC3)cnc2c1-c1ccccn1 stands at > 5 µM

Reported Ki of Cc1cnc2c(-c3cc(N[C@H](C)C4CCCCC4)ncn3)c(N)nn2c1 : 0.5 to 5 µM

More entries:
In plain terms, Nc1nn2cc(-c3ccncn3)cnc2c1C(=O)N1CCC[C@H]1CO has a documented Ki of > 5 µM

Consider Nc1nn2cc(-c3ccncc3)cnc2c1-c1ncccc1OCc1ccccc1 . Its measured Ki is > 5 µM

response.value for Nc1nn2cc(-c3cccc(CN4CCNCC4)c3)cnc2c1-c1ccccn1 (field: Ki) = 0.5 to 5 µM

The molecule identified as CCN(Cc1ccccn1)c1ncccc1-c1cnc2c(-c3ccccn3)c(N)nn2c1 registered its Ki at > 5 µM

Entry Nc1nn2cc(-c3ccc(C(=O)N4CCC4)cn3)cnc2c1-c1ccccn1 — recorded Ki = > 5 µM

Ki recorded for this molecule, Nc1nn2cc(-c3ccnc(N4CCN(CCOCCO)CC4)c3)cnc2c1-c1ccccn1 , is 0.5 to 5 µM
